Would you kindly list Skeletal EC25 for each of these molecules?
System: Rabbit Psoas myofibrils (skeletal myosin ATPase)
test: Myofibril ATPase assay, rabbit psoas (skeletal) myofibrils
Type: biochemical
protocol-conditions: rabbit psoas myofibrils; Y75 value

**Q:** Skeletal EC25 for Cc1nccc2[nH]c(=O)c(CC(=O)N[C@@H](C)c3ccncc3)c(C)c12 (single isomer, unassigned) ?
**A:** 100.00 µM

**Q:** Skeletal EC25 for `Cc1nccc2[nH]c(=O)c(CC(=O)N[C@@H](CO)Cc3ccccc3)c(C)c12` ?
**A:** 100.00 µM

**Q:** Skeletal EC25 for Cc1nccc2[nH]c(=O)c(CC(=O)N[C@H](c3ccc(F)cc3F)C(C)(C)O)c(C)c12 (single isomer, unassigned) ?
**A:** 100.00 µM

**Q:** Skeletal EC25 for Cc1cccc([C@@H](CO)NC(=O)Cc2c(C)c3c(C)nccc3[nH]c2=O)c1 (single isomer, unassigned) ?
**A:** 100.00 µM

**Q:** Skeletal EC25 for Cc1c(CC(=O)N[C@H](CO)c2ncc(C#N)cc2F)c(=O)[nH]c2ccnc(C#N)c12 (single isomer, unassigned) ?
**A:** 0.93 µM

**Q:** Skeletal EC25 for COc1nccc2[nH]c(=O)c(CC(=O)N[C@@H](C)c3ncc(C#N)cc3F)c(C(F)(F)F)c12 (single isomer, unassigned) ?
**A:** 0.63 µM

====

Tested on: Porcine atria myofibrils (atrial myosin ATPase)
test: Myofibril ATPase assay, porcine atria myofibrils
Format: biochemical
protocol-conditions: porcine atria myofibrils; Y75 value (75% activity relative to no compound)
reported-endpoint: Atrial EC25 (µM)
Reply numerically in µM, unit not repeated.

**Q:** Atrial EC25 for Cc1nccc2[nH]c(=O)c(CC(=O)N[C@H]3COc4cccnc43)c(C)c12 (single isomer, unassigned) ?
**A:** 100.00

**Q:** Atrial EC25 for Cc1nccc2[nH]c(=O)c(CC(=O)N[C@@H]3c4c(F)cc(F)cc4OC3(C)C)c(C)c12 (single isomer, unassigned) ?
**A:** 8.11

**Q:** Atrial EC25 for COc1ccc([C@@H](C)NC(=O)Cc2c(C)c3c(C)nccc3[nH]c2=O)cn1 (single isomer, unassigned) ?
**A:** 100.00

**Q:** Atrial EC25 for Cc1c([C@@H](C)C(=O)N[C@@H](C)c2ccc(F)cc2F)c(=O)[nH]c2ccnc(OC(F)(F)F)c12 (single isomer, unassigned) ?
**A:** 0.94

**Q:** Atrial EC25 for Cc1c(CC(=O)N[C@H]2c3c(F)cc(F)cc3OC2(C)C)c(=O)[nH]c2ccnc(C#N)c12 (single isomer, unassigned) ?
**A:** 0.11

**Q:** Atrial EC25 for `C[C@H](NC(=O)Cc1cc2nc(Cl)ccc2[nH]c1=O)c1ccc(F)cc1F` ?
**A:** 1.08

**Q:** Atrial EC25 for Cc1nccc2[nH]c(=O)c(CC(=O)N[C@@H](C)c3cccnc3O)c(C)c12 (single isomer, unassigned) ?
**A:** 100.00

**Q:** Atrial EC25 for Cc1nccc2[nH]c(=O)c(C(F)(F)C(=O)N[C@@H](CO)c3ncc(C#N)cc3F)c(C)c12 (single isomer, unassigned) ?
**A:** 9.76

**Q:** Atrial EC25 for C[C@H](NC(=O)Cc1c(C(F)(F)F)c2c(C3CC3)nccc2[nH]c1=O)c1ncc(C#N)cn1 (single isomer, unassigned) ?
**A:** 100.00

**Q:** Atrial EC25 for `COc1ccc2[nH]c(=O)c(CC(=O)N[C@@H](C)c3ccc(F)cc3F)c(C)c2n1` ?
**A:** 0.04

**Q:** Atrial EC25 for Cc1c(CC(=O)N[C@@H](C)c2ncc(F)cc2F)c(=O)[nH]c2ccc(C#N)nc12 (single isomer, unassigned) ?
**A:** 2.60

**Q:** Atrial EC25 for `Cc1nccc2[nH]c(=O)c(CC(=O)NC[C@@H](CO)c3ccccc3)c(C)c12` ?
**A:** 100.00

**Q:** Atrial EC25 for `Cc1nccc2[nH]c(=O)c(CC(=O)N[C@@H](CO)Cc3ccccc3)c(C)c12` ?
**A:** 100.00

====

study-system: Porcine ventricle myofibrils (ventricular myosin ATPase) (Sus scrofa)
Construct: Myofibrils from porcine cardiac muscle was isolated from the left ventricle of Yucatan minipigs; tissue Exemplar Genetics; host or cells: left ventricle of Yucatan minipigs, myofibrils prepared in house
Sequence (P79293 whole entry): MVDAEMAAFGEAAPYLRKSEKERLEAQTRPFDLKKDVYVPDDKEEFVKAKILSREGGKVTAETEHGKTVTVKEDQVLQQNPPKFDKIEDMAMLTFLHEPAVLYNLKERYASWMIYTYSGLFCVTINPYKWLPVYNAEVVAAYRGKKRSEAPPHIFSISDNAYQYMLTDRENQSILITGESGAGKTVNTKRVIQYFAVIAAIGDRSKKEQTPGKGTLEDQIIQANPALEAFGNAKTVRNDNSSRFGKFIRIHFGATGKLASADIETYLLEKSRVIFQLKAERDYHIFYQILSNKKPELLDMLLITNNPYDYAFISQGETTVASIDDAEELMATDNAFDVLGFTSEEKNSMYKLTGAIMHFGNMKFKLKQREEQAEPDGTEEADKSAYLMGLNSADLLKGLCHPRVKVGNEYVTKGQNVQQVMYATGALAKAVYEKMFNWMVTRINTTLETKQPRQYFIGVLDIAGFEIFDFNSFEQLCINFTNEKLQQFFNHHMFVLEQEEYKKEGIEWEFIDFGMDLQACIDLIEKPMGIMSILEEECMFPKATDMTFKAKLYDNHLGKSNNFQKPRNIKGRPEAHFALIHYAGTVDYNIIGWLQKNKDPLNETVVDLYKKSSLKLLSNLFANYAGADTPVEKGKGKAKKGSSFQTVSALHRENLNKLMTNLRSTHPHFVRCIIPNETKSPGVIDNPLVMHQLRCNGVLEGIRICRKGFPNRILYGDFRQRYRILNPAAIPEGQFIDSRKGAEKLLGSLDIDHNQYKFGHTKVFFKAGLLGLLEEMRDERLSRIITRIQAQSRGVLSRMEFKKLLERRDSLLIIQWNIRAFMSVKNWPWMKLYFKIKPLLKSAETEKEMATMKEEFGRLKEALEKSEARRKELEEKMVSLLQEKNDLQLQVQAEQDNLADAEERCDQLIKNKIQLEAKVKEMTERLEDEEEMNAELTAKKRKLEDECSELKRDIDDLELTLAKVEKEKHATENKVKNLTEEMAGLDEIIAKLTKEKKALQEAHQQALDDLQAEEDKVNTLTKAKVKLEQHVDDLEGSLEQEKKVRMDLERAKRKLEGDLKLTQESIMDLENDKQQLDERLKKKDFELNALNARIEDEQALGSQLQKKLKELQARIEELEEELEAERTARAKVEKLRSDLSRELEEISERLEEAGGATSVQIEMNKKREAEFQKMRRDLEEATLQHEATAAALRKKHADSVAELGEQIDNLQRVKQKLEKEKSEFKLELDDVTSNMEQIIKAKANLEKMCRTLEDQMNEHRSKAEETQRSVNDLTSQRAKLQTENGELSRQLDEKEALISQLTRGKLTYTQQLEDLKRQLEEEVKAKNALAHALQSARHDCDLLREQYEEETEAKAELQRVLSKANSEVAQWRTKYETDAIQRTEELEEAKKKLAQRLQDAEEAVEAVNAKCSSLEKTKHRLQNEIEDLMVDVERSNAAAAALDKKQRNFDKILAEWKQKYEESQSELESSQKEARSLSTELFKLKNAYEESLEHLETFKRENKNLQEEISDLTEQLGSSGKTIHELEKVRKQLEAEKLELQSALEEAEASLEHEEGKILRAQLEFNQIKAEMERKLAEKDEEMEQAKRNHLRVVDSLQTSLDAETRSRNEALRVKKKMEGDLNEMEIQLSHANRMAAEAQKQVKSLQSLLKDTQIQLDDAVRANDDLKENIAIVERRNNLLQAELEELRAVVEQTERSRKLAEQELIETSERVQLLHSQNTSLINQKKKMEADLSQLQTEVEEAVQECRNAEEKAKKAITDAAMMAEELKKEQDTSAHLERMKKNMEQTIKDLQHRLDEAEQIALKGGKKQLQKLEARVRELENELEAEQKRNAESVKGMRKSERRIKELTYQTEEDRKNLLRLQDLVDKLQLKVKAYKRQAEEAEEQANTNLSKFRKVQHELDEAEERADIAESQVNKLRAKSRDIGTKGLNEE
test: Myofibril ATPase assay, porcine ventricle myofibrils
Format: biochemical, porcine (Yucatan minipigs)
protocol-conditions: porcine ventricle myofibrils; Y75 value
Label key: Satisfied means Ventricular EC25 under 20 µM; Not satisfied means Ventricular EC25 of 20 µM or more.

**Q:** Here's an entry: Cc1ccc2[nH]c(=O)c(CC(=O)N[C@H](C)c3ncc(C#N)cc3F)c(C)c2n1 [compound 468] . Is its Ventricular EC25 below 20 µM?
**A:** Satisfied

**Q:** Here's an entry: Cc1c(CC(=O)N[C@@H](C)c2ncc(C#N)cc2F)c(=O)[nH]c2ccnc(C(F)(F)F)c12 (single isomer, unassigned) [compound 227] . Is its Ventricular EC25 below 20 µM?
**A:** Satisfied

**Q:** Here's an entry: Cc1nccc2[nH]c(=O)c(C3(C(=O)N[C@@H](C)c4ncc(C#N)cc4F)CC3)c(C)c12 (single isomer, unassigned) [compound 3507] . Is its Ventricular EC25 below 20 µM?
**A:** Satisfied

**Q:** Here's an entry: C[C@H](NC(=O)Cc1c(C2CC2)c2cnccc2[nH]c1=O)c1ccc(C#N)cn1 [compound 141] . Is its Ventricular EC25 below 20 µM?
**A:** Not satisfied

**Q:** Here's an entry: Cc1c(CC(=O)N[C@H](C)c2ccc(C#N)cc2F)c(=O)[nH]c2ccnc(OC3CC3)c12 [compound 201] . Is its Ventricular EC25 below 20 µM?
**A:** Not satisfied

**Q:** Here's an entry: Cc1nccc2[nH]c(=O)c(C(F)(F)C(=O)N[C@H](C)c3ncc(C#N)cc3F)c(C)c12 (single isomer, unassigned) [compound 3513] . Is its Ventricular EC25 below 20 µM?
**A:** Not satisfied

**Q:** Here's an entry: Cc1nccc2[nH]c(=O)c(C(F)(F)C(=O)N[C@@H](CO)c3ncc(C#N)cc3F)c(C)c12 (single isomer, unassigned) [compound 3523] . Is its Ventricular EC25 below 20 µM?
**A:** Not satisfied

====

System: Porcine atria myofibrils (atrial myosin ATPase)
test: Myofibril ATPase assay, porcine atria myofibrils
Assay type: biochemical
protocol-conditions: Y75 value (no ‡ mark); porcine atria myofibrils
reported-endpoint: Atrial EC25 (nM)
Reply numerically in nM, unit not repeated.

**Q:** What value of Atrial EC25 on Porcine atria myofibrils (atrial myosin ATPase) does Cc1c([C@H](C)C(=O)N[C@@H](C)c2ccc(F)cc2F)c(=O)[nH]c2ccc(F)c(F)c12 (single isomer, unassigned) have?
**A:** 60

**Q:** What value of Atrial EC25 on Porcine atria myofibrils (atrial myosin ATPase) does `Cc1c(CC(=O)N[C@@H](C)c2ncc(F)cc2F)c(=O)[nH]c2ccc(F)c(C(F)(F)F)c12` have?
**A:** 160

**Q:** What value of Atrial EC25 on Porcine atria myofibrils (atrial myosin ATPase) does O=C(Cc1cc2c(F)c(F)ccc2[nH]c1=O)N1CC2CC1c1ccccc12 (stereo not shown) have?
**A:** 920

**Q:** What value of Atrial EC25 on Porcine atria myofibrils (atrial myosin ATPase) does CC[C@H](NC(=O)Cc1c(C)c2c(C)c(F)ccc2[nH]c1=O)c1ncc(C#N)cn1 (single isomer, unassigned) have?
**A:** 490

**Q:** What value of Atrial EC25 on Porcine atria myofibrils (atrial myosin ATPase) does `C[C@H](NC(=O)C(F)(F)c1cc2cc(F)ccc2[nH]c1=O)c1ccc(F)cc1F` have?
**A:** 260

**Q:** What value of Atrial EC25 on Porcine atria myofibrils (atrial myosin ATPase) does Cc1c(C(F)(F)C(=O)N[C@@H](C)c2ncc(F)cc2F)c(=O)[nH]c2ccc(F)cc12 (single isomer, unassigned) have?
**A:** 120

**Q:** What value of Atrial EC25 on Porcine atria myofibrils (atrial myosin ATPase) does N#Cc1cnc2c(c1)OC[C@H]2NC(=O)Cc1cc2c(F)c(F)ccc2[nH]c1=O (single isomer, unassigned) have?
**A:** 320

**Q:** What value of Atrial EC25 on Porcine atria myofibrils (atrial myosin ATPase) does `Cc1cc([C@@H](C)NC(=O)Cc2c(O)c3c(C)c(F)ccc3[nH]c2=O)ncc1F` have?
**A:** 100000

**Q:** What value of Atrial EC25 on Porcine atria myofibrils (atrial myosin ATPase) does Cc1c(CC(=O)N[C@@H](C)c2cnc(C#N)nc2)c(=O)[nH]c2cc(F)c(F)cc12 (single isomer, unassigned) have?
**A:** 70

**Q:** What value of Atrial EC25 on Porcine atria myofibrils (atrial myosin ATPase) does C[C@@H](NC(=O)Cc1c(C2CC2)c2cc(F)ccc2[nH]c1=O)c1ccc(C#N)nn1 (single isomer, unassigned) have?
**A:** 100000
